# credit: paper PMC9482650

studyTarget: MAST1, Q9Y2H9
Sequence (Q9Y2H9 962-1065): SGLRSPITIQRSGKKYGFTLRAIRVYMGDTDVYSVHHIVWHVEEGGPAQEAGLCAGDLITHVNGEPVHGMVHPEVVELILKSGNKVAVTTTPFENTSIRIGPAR
procedureSummary: holdup assay
Design: key: below the threshold = too weak to quantify, mostly under pKd 3.1 to 4
experimentalParameters: plain residues with an end cap or a label only (N-terminal biotin on a linker: ahx)
Decide by pKd: equal to or exceeding 4 means 1 (yes), less means 0 (no).

Hello, I need to know if GYDWGPATDL [TJP3, O95049] has measured pKd not below 4. Thanks!
1 (yes)

Hello, I need to know if TVICWPGSLV [LNX2, Q8N448] has measured pKd not below 4. Thanks!
0 (no)

Hello, I need to know if RRRKRKRTYL [HPV49-L2, P36762] has measured pKd not below 4. Thanks!
1 (yes)

Hello, I need to know if HNAFLSVTTV [PDZRN4, Q6ZMN7] has measured pKd not below 4. Thanks!
0 (no)
